Molecular target: transglutaminase 2 (TGase 2) (Homo sapiens)
Construct: recombinant human TGase 2, polyhistidine-tagged
Sequence (P21980 2-687): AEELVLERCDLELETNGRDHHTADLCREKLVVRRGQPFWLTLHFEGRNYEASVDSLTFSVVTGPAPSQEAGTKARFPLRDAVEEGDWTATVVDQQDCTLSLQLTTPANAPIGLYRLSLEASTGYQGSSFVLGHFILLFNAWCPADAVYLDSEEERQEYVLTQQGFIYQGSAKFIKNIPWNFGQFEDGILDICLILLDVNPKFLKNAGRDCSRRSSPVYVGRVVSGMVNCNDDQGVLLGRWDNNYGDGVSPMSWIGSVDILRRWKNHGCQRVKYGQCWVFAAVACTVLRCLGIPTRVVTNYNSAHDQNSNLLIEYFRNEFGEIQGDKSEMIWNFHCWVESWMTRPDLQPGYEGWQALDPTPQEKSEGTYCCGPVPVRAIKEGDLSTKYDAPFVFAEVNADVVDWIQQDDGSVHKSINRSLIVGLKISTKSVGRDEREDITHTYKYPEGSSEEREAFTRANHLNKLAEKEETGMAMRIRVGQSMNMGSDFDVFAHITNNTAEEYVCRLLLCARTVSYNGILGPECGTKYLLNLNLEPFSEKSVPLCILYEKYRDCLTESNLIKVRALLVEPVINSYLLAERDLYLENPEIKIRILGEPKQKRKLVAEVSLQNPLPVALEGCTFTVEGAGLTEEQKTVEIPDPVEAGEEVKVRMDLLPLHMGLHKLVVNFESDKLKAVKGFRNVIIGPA
Assay: SPR (ProteOn XPR36); MS peptide masking supports the site
pKd: −log10 of the molar value.
MEASUREMENT_TYPE: pKd

Quick check: pKd of COC1=C(N)C(=O)c2nc(-c3nc(C(=O)O)c(C)c(-c4ccc(OC)c(OC)c4O)c3N)ccc2C1=O [streptonigrin] ? ~6.15
